- Assayed System: T1, Recombinant human IGF-II (insulin-like growth factor-II) (human, UniProt P01344 25-91)
- T1 construct: Bought; also called IGF2; IGF-2
- Assay Overview: limited antigen ELISA, supernatant 1:25
Measured Endpoint: LA OD, IGF2 4 ng/ml (OD 450 nm)
Express your answer in OD 450 nm, writing the number without its unit.

So for mAb 7.234.2 (antibody, V domains shown, also called 7.234.1; 7_234_1) VH: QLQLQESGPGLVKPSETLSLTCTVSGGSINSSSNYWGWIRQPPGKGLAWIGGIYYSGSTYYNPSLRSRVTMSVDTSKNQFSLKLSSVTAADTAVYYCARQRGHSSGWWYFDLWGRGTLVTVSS VL: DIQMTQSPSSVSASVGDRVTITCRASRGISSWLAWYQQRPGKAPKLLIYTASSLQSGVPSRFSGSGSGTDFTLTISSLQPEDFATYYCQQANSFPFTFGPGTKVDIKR , the logged LA OD, IGF2 4 ng/ml turned out to be 2.44
